subject-of-test: Protein phosphatase methylesterase 1 (Homo sapiens) (UniProt Q9Y570)
Sequence (Q9Y570 whole entry, looked up): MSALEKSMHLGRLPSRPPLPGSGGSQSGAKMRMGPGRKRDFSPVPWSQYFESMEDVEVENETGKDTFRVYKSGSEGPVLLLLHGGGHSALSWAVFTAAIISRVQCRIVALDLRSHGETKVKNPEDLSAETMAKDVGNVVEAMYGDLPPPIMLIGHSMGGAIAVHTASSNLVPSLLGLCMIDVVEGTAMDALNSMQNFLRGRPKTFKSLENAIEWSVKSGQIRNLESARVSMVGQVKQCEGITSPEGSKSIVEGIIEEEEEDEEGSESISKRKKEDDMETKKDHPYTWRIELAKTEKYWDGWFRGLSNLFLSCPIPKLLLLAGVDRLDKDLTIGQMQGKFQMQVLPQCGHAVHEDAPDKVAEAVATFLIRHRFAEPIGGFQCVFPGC
test-name: endogenous PME-1 and serine hydrolase inhibition – cell lysate, mouse brain cytosol, FP-rhodamine, gel ABPP, selectivity assay for PME-1 inhibitor project, dose response (AID 2366)
The source made the active and inactive calls.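 Rule for the calls: active = compounds picked for the later follow-up tests because of their potency and selectivity; inactive = compounds skipped in follow-up as weaker or less selective.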
Select the correct class. Options are active, inactive and nothing else.

Use the examples below as a reference point.
CS(=O)(=O)/C(C#N)=C/c1cccn1S(=O)(=O)c1ccc([N+](=O)[O-])cc1 active
CC(C)(C)S(=O)(=O)/C(C#N)=C/c1cccn1S(=O)(=O)c1ccccc1 active
N#C/C(=C\c1cccn1S(=O)(=O)c1ccccc1)S(=O)(=O)c1ccccc1 inactive

Now look at this entry.
Qu. Recorded call for CC(C)(C)S(=O)(=O)/C(C#N)=C/c1cccn1S(=O)(=O)c1cccc(C#N)c1 ?
Ans. active

* * *

subject-of-test: Protein phosphatase methylesterase 1 (Homo sapiens)
test-name: endogenous PME-1 and serine hydrolase inhibition – cell lysate, mouse brain cytosol, FP-rhodamine, gel ABPP, selectivity assay for PME-1 inhibitor project, dose response (AID 2366)
The source made the active and inactive calls.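 How the source made its calls: active means compounds picked for the later follow-up tests because of their potency and selectivity; inactive means compounds skipped in follow-up as weaker or less selective.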
observation-type: IC50

Illustrative cases are given below, each with its answer.
CS(=O)(=O)/C(C#N)=C/c1cccn1S(=O)(=O)c1cccc(C#N)c1 2.5 µM
CS(=O)(=O)/C(C#N)=C/c1cccn1S(=O)(=O)c1c(F)c(F)c(F)c(F)c1F > 20 µM (inactive)
N#C/C(=C\c1cccn1S(=O)(=O)c1cccc(C#N)c1)S(=O)(=O)c1ccc(F)cc1 0.64 µM

Qu. GET /values?readout=IC50&item= CS(=O)(=O)/C(C#N)=C/c1cccn1S(=O)(=O)c1ccccc1
Ans. 10.8 µM

Qu. For the molecule CS(=O)(=O)/C(C#N)=C/c1cccn1S(=O)(=O)c1ccc(C#N)cc1 , what IC50 is on record?
Ans. 4 µM
